Biological target: KDR (human, UniProt P35968 20-1356)
Sequence (P35968 20-1356): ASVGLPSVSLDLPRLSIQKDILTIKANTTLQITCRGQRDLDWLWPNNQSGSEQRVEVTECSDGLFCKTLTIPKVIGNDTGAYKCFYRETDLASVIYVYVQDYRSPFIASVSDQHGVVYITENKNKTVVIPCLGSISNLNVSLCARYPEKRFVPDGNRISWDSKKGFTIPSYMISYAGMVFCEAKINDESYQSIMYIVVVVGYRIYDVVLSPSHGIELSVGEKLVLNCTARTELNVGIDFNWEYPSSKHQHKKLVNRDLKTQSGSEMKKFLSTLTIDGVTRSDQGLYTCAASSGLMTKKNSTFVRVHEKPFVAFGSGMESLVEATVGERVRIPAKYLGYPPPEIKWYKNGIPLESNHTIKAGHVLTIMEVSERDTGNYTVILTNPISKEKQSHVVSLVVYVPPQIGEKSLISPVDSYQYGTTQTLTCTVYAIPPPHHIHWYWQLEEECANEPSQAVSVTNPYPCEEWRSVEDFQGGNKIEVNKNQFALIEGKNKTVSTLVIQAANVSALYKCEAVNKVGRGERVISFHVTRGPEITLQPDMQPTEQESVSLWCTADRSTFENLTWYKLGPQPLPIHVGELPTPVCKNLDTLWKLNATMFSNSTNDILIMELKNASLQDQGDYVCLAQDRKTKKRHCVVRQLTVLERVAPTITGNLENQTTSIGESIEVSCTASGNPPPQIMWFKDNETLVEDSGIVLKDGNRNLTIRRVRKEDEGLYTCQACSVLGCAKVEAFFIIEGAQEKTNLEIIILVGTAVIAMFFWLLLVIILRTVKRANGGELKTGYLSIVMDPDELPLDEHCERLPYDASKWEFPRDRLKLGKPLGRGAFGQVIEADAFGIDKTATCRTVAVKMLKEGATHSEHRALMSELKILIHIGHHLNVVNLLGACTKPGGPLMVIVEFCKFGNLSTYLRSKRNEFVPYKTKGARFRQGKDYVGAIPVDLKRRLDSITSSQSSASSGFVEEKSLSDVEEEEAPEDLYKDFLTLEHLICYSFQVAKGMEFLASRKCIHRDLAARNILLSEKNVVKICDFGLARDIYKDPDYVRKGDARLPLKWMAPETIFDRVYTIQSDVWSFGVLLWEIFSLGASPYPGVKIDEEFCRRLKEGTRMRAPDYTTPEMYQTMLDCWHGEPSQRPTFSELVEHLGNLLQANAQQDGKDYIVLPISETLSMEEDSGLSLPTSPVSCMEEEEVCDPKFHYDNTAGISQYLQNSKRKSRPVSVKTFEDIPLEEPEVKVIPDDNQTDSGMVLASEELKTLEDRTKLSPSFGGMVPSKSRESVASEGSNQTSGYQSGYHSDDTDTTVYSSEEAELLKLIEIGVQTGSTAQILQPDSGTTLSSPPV
Test: cell-based or functional assay
Metric: Activity at 133 nM (% Inhibition), 24-hour Pre-incubation at 37° C., Average

Binder	Recorded Measurement
1G6 (antibody, V domains shown) VH: EVQLLESGGGLVQPGGSLRLSCAASGFTFSSYAMSWVRQAPGKGLEWVSAISGGGGNTYYADSVKGRFTISRDNSKNTLYLQMNSLRAEDTAVYYCSKVATDYWGQGTLVTVSS VL: QPVLTQSSSASASLGSSVKLTCTLSSGHSSYIIAWHQQQPGKAPRYLMKLEGSGSYNKGSGVPDRFSGSSSGADRYLTISNLQFEDEADYYCETWDSYTVVFGGGTKLTVL	36%
33B1 (antibody, V domains shown) VH: EVQLVESGGGLVKPGGSLRLSCAASGFTFSSYTMNWVRQAPGKGLEWVSFIDSRSSYIYYADSVKGRFTISRDNAKNSLYLQMNSLRAEDTAVYYCSKDDWFEELWGQGTLVTVSS VL: DIQMTQSPSSLSASVGDRVTITCRASQGIRNDLGWYQQKPGKAPKRLIYATSSLQSGVPSRFSGSGSGTEFTLTISSLQPEDFATYYCLHHNSFPWTFGQGTKVEIK	85%
22B8 (antibody, V domains shown) VH: QLQLQESGPGLVKPSETLSLTCTVSGGSISSRYYYWGWVRQPPGKGLEWIGTIYYSGHTYYNPSLKTRVTISVDTSKNQFSLKLISVTAADTAVYYCATQQLVLYYFDFWGQGTLVTVSS VL: EIVLTQSPGTLSLSPGERAALSCRASQSISSSYLAWYQQRPGQAPRLLIYGASSRATGIPDRFNGSGSGTDFTLTISRLEPEDFAVYYCQQFGSSITFGQGTRLEIK	99%
